biological target: MMP8; experiment: metalloprotease panel inhibitors: MMPs, meprins, late-stage follow-up, selectivity assay for ADAM10 and ADAM17 inhibitor project, biochemical, QFRET, MMP1/2/8/9/10/13/14, Meprin A/B (AID 743473); conditions: QFRET peptide cleavage, MCA fluorescence
Answer each item with its documented pIC50.
Please treat pIC50 as minus the base-10 logarithm of the molar concentration.

Look up and report measured pIC50 for this entry: O=C1NC(=O)C(Cc2ccc(Cl)cc2)(c2ccccc2)N1 (centres undefined)
5.19

Look up and report measured pIC50 for this entry: CCOc1ccc(NC(=O)CC2SC(=O)N(c3ccccc3)C2=O)cc1 (centres undefined)
5.80

* * *

Answer each item with its documented IC50.
target: MMP1; assay: metalloprotease panel inhibitors: MMPs, meprins, late-stage follow-up, selectivity assay for ADAM10 and ADAM17 inhibitor project, biochemical, QFRET, MMP1/2/8/9/10/13/14, Meprin A/B (AID 743473); details: QFRET peptide cleavage, MCA fluorescence
Give the value in µM but do not write µM after it.

Look up and report measured IC50 for this entry: O=C1NC(=O)C(Cc2ccc(Cl)cc2)(c2ccccc2)N1 (centres undefined)
18.5

Look up and report measured IC50 for this entry: CCOc1ccc(NC(=O)CC2SC(=O)N(c3ccccc3)C2=O)cc1 (centres undefined)
75

* * *

biological target: MMP10; assay: metalloprotease panel inhibitors: MMPs, meprins, late-stage follow-up, selectivity assay for ADAM10 and ADAM17 inhibitor project, biochemical, QFRET, MMP1/2/8/9/10/13/14, Meprin A/B (AID 743473); settings: QFRET peptide cleavage, MCA fluorescence
property: IC50

Write down measured IC50 (MMP10) for this compound. O=C(O)CCC(=O)c1c[nH]c2ccccc12
> 100 µM

Write down measured IC50 (MMP10) for this compound. O=C1NC(=O)C(Cc2ccc(Cl)cc2)(c2ccccc2)N1 (centres undefined)
> 100 µM

Write down measured IC50 (MMP10) for this compound. CCOc1ccc(NC(=O)CC2SC(=O)N(c3ccccc3)C2=O)cc1 (centres undefined)
28.6 µM

Write down measured IC50 (MMP10) for this compound. COc1cccc(C(=O)NNC(=O)C(=O)Nc2ccc(C)c(Cl)c2)c1
> 100 µM

* * *

target: MMP9; test: metalloprotease panel inhibitors: MMPs, meprins, late-stage follow-up, selectivity assay for ADAM10 and ADAM17 inhibitor project, biochemical, QFRET, MMP1/2/8/9/10/13/14, Meprin A/B (AID 743473); settings: QFRET peptide cleavage, MCA fluorescence
pIC50: −log10 of the molar value.
Answer each item with its documented pIC50.

Look up and report measured pIC50 for this entry: O=C1NC(=O)C(Cc2ccc(Cl)cc2)(c2ccccc2)N1 (centres undefined)
< 4.00

Look up and report measured pIC50 for this entry: COc1cccc(C(=O)NNC(=O)C(=O)Nc2ccc(C)c(Cl)c2)c1
< 4.00

Look up and report measured pIC50 for this entry: O=C(O)CCC(=O)c1c[nH]c2ccccc12
< 4.00

Look up and report measured pIC50 for this entry: CCOc1ccc(NC(=O)CC2SC(=O)N(c3ccccc3)C2=O)cc1 (centres undefined)
5.52
